Read-out: TIMP metallopeptidase inhibitor 1 (TIMP1), TIMP1 (gene 7076)
Experiment: BSK_hDFCGF_TIMP1: BioMAP Diversity Plus: hDFCGF Assay for TIMP metallopeptidase inhibitor 1 (TIMP1) Biomarker Activity (AID 2283062)
Conditions: primary human foreskin fibroblasts; actives raise or lower the signal
The source made the active and inactive calls. Rule for the calls: active = hit-call score of the fitted dose curve at least 0.9, where 1 is the maximum; inactive = score below 0.9.
Outcomes you can answer with include only these: 1 (yes) for active, 0 (no) for inactive

CN(C(=O)C(F)(F)C(F)(F)C(F)(F)F)[Si](C)(C)C ... 0 (no)
FC(F)(F)C(F)(F)C(F)(F)C(F)(F)C(F)(F)C(F)(F)C(F)(F)CCI ... 0 (no)
O=C1c2c(O)ccc(Nc3ccc(CCO)cc3)c2C(=O)c2c([N+](=O)[O-])ccc(O)c21 ... 1 (yes)
FC(F)(F)C(F)(F)C(F)(F)C(F)(F)C(F)(F)C(F)(F)CC[Si](Cl)(Cl)Cl ... 0 (no)
CC(C)(C)c1cc(CCC(=O)NCCCCCCNC(=O)CCc2cc(C(C)(C)C)c(O)c(C(C)(C)C)c2)cc(C(C)(C)C)c1O ... 0 (no)
O=C(c1ccccc1)c1ccc(O)cc1O ... 0 (no)
O=C(O)C(F)(F)C(F)(F)C(F)(F)C(=O)O ... 0 (no)
CCOC(C=C(C)CCC=C(C)C)OCC ... 1 (yes)
C=CC(=O)OCCC(F)(F)C(F)(F)C(F)(F)C(F)(F)F ... 0 (no)
CCN(CC)c1ccc(C=O)c(O)c1 ... 0 (no)

Problem: Kindly provide the recorded test outcome for the following compound: `Nc1cc([N+](=O)[O-])cc(Cl)c1O`
Result: 0 (no)

Problem: Kindly provide the recorded test outcome for the following compound: `O=C(F)C1(F)C(F)(F)C(F)(F)C(F)(F)C(F)(F)C1(F)F`
Result: 0 (no)

###

Experiment: CCTE_Shafer_MEA_dev_per_burst_spike_percent: CCTE's Neural Network Formation Assay for Percent of Spikes in a Burst, Shafer Lab (AID 2284032)
Calls of active or inactive are those of the source. Rule for the calls: active = hit-call score of the fitted dose curve at least 0.9, where 1 is the maximum; inactive = score below 0.9.
Outcomes you can answer with include only these: active, inactive

# count of solved cases: 5
C=CC(=O)OCC(F)(F)C(F)(F)C(F)(F)COC(=O)C=C ... active
O=S(=O)(O)CCC(F)(F)C(F)(F)C(F)(F)C(F)(F)C(F)(F)C(F)(F)C(F)(F)C(F)(F)F ... inactive
NC(=O)C(F)(F)C(F)(F)C(F)(F)F ... inactive
OCC(F)(F)C(F)(F)C(F)(F)CO ... inactive
CNS(=O)(=O)C(F)(F)C(F)(F)C(F)(F)C(F)(F)C(F)(F)C(F)(F)C(F)(F)C(F)(F)F ... inactive

// next entry
Problem: Kindly provide the recorded test outcome for the following compound: `OCC(F)(F)C(F)(F)C(F)(F)C(F)(F)C(F)(F)C(F)(F)C(F)(F)C(F)(F)CO`
Result: inactive

###

Experiment: BSK_LPS_SRB: Viability Assessment in the BioMAP Diversity Plus: LPS Assay (AID 2283079);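 note: total protein by sulforhodamine B absorbance as a cytotoxicity measure; measured one day after compound addition; fitted in both directions against DMSO so loss or gain of signal counts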
Details: primary human HUVEC with PBMC
Calls of active or inactive are those of the source. Rule for the calls: active = hit-call score of the fitted dose curve at least 0.9, where 1 is the maximum; inactive = score below 0.9.
Outcomes you can answer with include only these: Y for active, N for inactive

O=C(F)C1(F)C(F)(F)C(F)(F)C(F)(F)C(F)(F)C1(F)F ... N
O=S(=O)(O)CCC(F)(F)C(F)(F)C(F)(F)C(F)(F)C(F)(F)C(F)(F)C(F)(F)C(F)(F)F ... N

Problem: Kindly provide the recorded test outcome for the following molecule: `NC(=O)C(F)(F)C(F)(F)C(F)(F)F`
Result: N

Problem: Kindly provide the recorded test outcome for the following molecule: `CCOC(=O)CC(=O)C(F)(F)C(F)(F)F`
Result: N

Problem: Kindly provide the recorded test outcome for the following molecule: `OCCCCC(F)(F)C(F)(F)C(F)(F)C(F)(F)F`
Result: N

Problem: Kindly provide the recorded test outcome for the following molecule: `C=CC(=O)OCC(F)(F)C(F)(F)C(F)(F)C(F)(F)C(F)(F)C(F)(F)C(F)(F)C(F)F`
Result: N

Problem: Kindly provide the recorded test outcome for the following molecule: CC1=CC2C3C=CC(C3)C2C1C (centres undefined)
Result: N
